target: human CDK4 and genetically truncated (1-264) cyclin D3 (Homo sapiens); assay: Inhibition of CDK4/Cyclin D Retinoblastoma Kinase Activity; assay type: biochemical; conditions: at 0.03 μM
Sequence (P11802 whole entry, the tested form may be a part): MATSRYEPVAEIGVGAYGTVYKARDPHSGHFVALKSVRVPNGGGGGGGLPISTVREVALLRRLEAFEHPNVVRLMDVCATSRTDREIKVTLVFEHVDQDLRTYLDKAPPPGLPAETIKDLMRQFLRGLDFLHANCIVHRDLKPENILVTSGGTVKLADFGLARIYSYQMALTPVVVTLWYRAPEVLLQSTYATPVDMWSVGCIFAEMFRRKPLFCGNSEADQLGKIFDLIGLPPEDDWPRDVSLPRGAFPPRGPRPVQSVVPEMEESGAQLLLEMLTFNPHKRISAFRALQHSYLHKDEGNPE
Sequence (P30281 1-264 partner): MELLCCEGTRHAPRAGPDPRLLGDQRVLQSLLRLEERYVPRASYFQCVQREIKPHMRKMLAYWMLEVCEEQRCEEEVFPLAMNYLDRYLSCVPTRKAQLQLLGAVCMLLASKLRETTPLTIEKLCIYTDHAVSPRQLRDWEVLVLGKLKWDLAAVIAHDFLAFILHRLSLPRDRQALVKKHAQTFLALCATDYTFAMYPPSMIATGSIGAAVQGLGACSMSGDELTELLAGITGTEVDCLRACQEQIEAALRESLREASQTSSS
quantity_name: CDK4 % Inhibition at 0.03 μM

Lab book: CDK4 % Inhibition at 0.03 μM of "Nc1nc(NC2CCN(C(=O)c3cccc(F)c3)CC2)sc1C(=O)c1c(F)cccc1F" noted as 77%

# CDK4 % Inhibition at 0.03 μM (compound: "Nc1nc(NC2CCN(C(=O)c3ccccc3F)CC2)sc1C(=O)c1c(F)cccc1F" ) is −8%

Value of measured CDK4 % Inhibition at 0.03 μM for the entry "Cc1onc(-c2ccccc2)c1C(=O)N1CCC(Nc2nc(N)c(C(=O)c3c(F)cccc3F)s2)CC1" : 38%

Just so you know, measured CDK4 % Inhibition at 0.03 μM for "COc1cccc(OC)c1C(=O)N1CCC(Nc2nc(N)c(C(=O)c3c(F)cccc3F)s2)CC1" came out at 33%

# compound "COc1ccc(O)c(C(=O)N2CCC(Nc3nc(N)c(C(=O)c4c(F)cccc4F)s3)CC2)c1" ; its CDK4 % Inhibition at 0.03 μM = 60%

Per the records, this compound ( CCOc1ccccc1C(=O)N1CCC(Nc2nc(N)c(C(=O)c3c(F)cccc3F)s2)CC1 [Example R6] ) has CDK4 % Inhibition at 0.03 μM equal to 42%

So for Nc1nc(NC2CCN(C(=O)[C@@H]3C[C@H]3c3ccccc3)CC2)sc1C(=O)c1c(F)cccc1F (relative stereo) , the logged CDK4 % Inhibition at 0.03 μM turned out to be −2%
